- tgt: CRBN (human cereblon) (Homo sapiens)
pIC50: −log10 of the molar value.
readout_kind: pIC50

>>> result("CC1(C)[C@H](NC(=O)c2ccc(N3CCN(CCCSc4ccc5c(c4)CN(C4CCC(=O)NC4=O)C5=O)CC3)nc2)C(C)(C)[C@H]1Oc1ccc(C#N)c(Cl)c1 (stereo partly shown) [GT19, PROTAC GT19]")
6.82
